Molecular target: Rap guanine nucleotide exchange factor 3 (Homo sapiens)
Test: Counterscreen qHTS for antagonist of cAMP-regulated guanine nucleotide exchange factor 3 (EPAC1) (AID 1645888);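 further: fluorescence loss as bound BODIPY-GDP is released from Rap1B; % of control where 0% means no effect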
Details: Rap1B-BODIPY-GDP nucleotide exchange, fluorescence; series mostly up to 154 µM
Records with an inconclusive call do not appear. Activity calls are given as the source filed them. The call rests on the fitted dose curve; in most records, active means well fitted inhibition curve with a large enough effect; inconclusive means small, poorly fitted or top-dose-only effect; inactive means no such curve, though single readings can be large or run the other way.
quantity.name: activity change, negative = inhibition

As a guide, the following entries are already answered.
| compound | activity change, negative = inhibition |
| --- | --- |
| Cc1ccc(C)c(S(=O)(=O)N2CCN(C(=O)CCc3nc4ccccc4c(=O)[nH]3)CC2)c1 | -11.5% [at 30.8 µM] (inactive) |
| O=c1c2ccccc2c(C=Nc2ccc(O)cc2)c(O)n1Cc1ccccc1 | -7.68% [at 30.8 µM] (inactive) |
| O=[N+]([O-])CC(c1ccccc1)c1c[nH]c2ccccc12 (stereo not drawn) | inactive |
| Cc1cc2nc3c(=O)[nH]c(=O)[nH]c3nc2c([N+](=O)[O-])c1N | inactive |
| COc1cc(NC2c3ncccc3C(=O)N2Cc2ccco2)cc(OC)c1 (stereo not drawn) | inactive |
| CCOC(=O)COc1ccc(/C=C(\C#N)c2nc3ccc(C)cc3[nH]2)cc1OC | inactive |
| Cc1ccc(Cl)cc1N1CCN(C(=O)c2cccc3c(=O)c(C)c(-c4ccccc4)oc23)CC1 | -10.3% [at 30.8 µM] (inactive) |
| Cc1ccc(C(=O)c2cn(Cc3cccc(C)c3)c3nc(C)ccc3c2=O)cc1 | inactive |

// returns reported activity change, negative = inhibition for input Cc1cc(NS(=O)(=O)c2ccc(NC(=S)NC(=O)/C=C/c3ccccc3)cc2)no1
-2.1% [at 30.8 µM] (inactive)

What about N#Cc1c(Nc2ccccc2)sc(C(=O)c2ccccc2)c1N ?
13.4% [at 30.8 µM] (inactive)

What about CCCN1C(=O)S/C(=C/c2ccc(N3CCOCC3)o2)C1=O ?
inactive

What about CCOC(=O)c1c(-c2ccc(OC)cc2)csc1/N=C/C1=C(O)CCCC1=O ?
-7.43% [at 30.8 µM] (inactive)

What about COc1ccc(OC)c(NC(=O)CSc2nccn2-c2cc(C)cc(C)c2)c1 ?
inactive
